Cited source for all entries: patent US20090298820A1

# target.or.system: PI3Kγ (Homo sapiens)
# Sequence (P48736 whole entry, species assumed): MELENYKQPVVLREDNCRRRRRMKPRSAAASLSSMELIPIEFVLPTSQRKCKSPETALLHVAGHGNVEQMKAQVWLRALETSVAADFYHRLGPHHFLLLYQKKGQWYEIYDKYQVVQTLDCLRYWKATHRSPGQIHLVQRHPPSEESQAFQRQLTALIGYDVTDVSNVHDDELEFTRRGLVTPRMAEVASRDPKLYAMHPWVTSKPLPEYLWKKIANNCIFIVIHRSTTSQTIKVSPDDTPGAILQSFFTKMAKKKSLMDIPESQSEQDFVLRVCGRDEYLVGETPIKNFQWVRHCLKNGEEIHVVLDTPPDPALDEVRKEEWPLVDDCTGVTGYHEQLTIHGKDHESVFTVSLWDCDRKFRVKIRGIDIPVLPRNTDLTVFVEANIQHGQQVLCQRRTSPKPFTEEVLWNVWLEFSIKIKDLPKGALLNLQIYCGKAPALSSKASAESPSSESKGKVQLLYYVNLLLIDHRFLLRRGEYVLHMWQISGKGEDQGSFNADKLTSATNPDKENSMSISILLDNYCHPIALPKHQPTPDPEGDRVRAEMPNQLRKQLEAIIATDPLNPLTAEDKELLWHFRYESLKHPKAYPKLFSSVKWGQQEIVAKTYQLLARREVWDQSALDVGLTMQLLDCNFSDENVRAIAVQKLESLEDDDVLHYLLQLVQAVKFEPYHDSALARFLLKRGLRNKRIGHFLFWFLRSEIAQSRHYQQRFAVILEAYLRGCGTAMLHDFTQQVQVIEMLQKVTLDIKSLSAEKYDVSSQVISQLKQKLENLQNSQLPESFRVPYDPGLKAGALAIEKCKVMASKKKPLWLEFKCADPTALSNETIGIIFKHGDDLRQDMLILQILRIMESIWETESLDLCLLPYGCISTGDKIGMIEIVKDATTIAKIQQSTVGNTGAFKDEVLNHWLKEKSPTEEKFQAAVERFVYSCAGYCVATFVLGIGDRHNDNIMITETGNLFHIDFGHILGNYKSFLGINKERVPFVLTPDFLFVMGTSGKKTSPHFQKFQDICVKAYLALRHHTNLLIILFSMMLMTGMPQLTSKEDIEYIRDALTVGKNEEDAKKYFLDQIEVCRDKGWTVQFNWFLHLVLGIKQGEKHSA
pIC50: −log10 of the molar value.
Cut-off 6 on pIC50, inclusive. At or above means Satisfied; below means Not satisfied.

[[record]]
compound = "Cn1cc(/C=C2\\Oc3cccc(O)c3C2=O)c2c(-c3ccc(S(C)(=O)=O)cc3)ccnc21"
discrete_label = "Satisfied"

[[record]]
compound = "CNC(=O)Nc1ccc2c(c1)C(=O)/C(=C/c1cn(CCN3CCN(C)CC3)c3ncc(OC)cc13)O2"
discrete_label = "Not satisfied"

[[record]]
compound = "Cn1cc(/C=C2\\Oc3cccc(O)c3C2=O)c2c(N3CCC(C(=O)N4C5CCCC4COC5)CC3)ccnc21"
discrete_label = "Satisfied"

[[record]]
compound = "Cn1cc(/C=C2\\Oc3cccc(O)c3C2=O)c2c(N3CC4CC3CN4)ccnc21 (stereo not drawn)"
discrete_label = "Satisfied"

[[record]]
compound = "CN(C)C(=O)c1ccccc1-c1ccnc2c1c(/C=C1\\Oc3cccc(O)c3C1=O)cn2C"
discrete_label = "Not satisfied"

[[record]]
compound = "CNC(=O)Nc1ccc2c(c1)C(=O)/C(=C/c1cn(C)c3nccc(N4C5CCC4COC5)c13)O2"
discrete_label = "Not satisfied"

[[record]]
compound = "CN(CCO)C(=O)c1ccc(-c2ccnc3c2c(/C=C2\\Oc4cccc(O)c4C2=O)cn3C)cc1"
discrete_label = "Satisfied"

[[record]]
compound = "CN(C)C(=O)c1cccc(-c2ccnc3c2c(/C=C2\\Oc4cccc(O)c4C2=O)cn3C)c1"
discrete_label = "Satisfied"

